Target: hFc-fused hLRRC4B and FAM19A5 complex formation (Homo sapiens, UniProt Q7Z5A7)
Assay: Competitive inhibition assay (IC50), plate coated with LRRC4B(453-576, TT/TT)-hFc
Assay type: binding
Conditions: Table 14; LRRC4B(453-576, TT/TT)-hFc 100 nM coat; peptide 0.03-1000 nM; read-out: IC50 (nM), Inhibition on Complex Formulation between human LRRC4B protein and recombinant FAM19A5 protein (1 ng/mL)
Ends that are not written are not given here.
value.type: IC50 (nM)
Give bare numbers, in nM.

Solved entries:
* GYTYFTTVTVEMRETQPGEEA [FB-21 (M12R13)] | 47.9
* GYTYFTTVTVETLETQPGEEA [FB-21 (wild-type)] | 11.9
* GYTYFTTVTVEHFETQPGEEA [FB-21 (H12F13)] | 9.8

Each sequence below has a recorded value; state its IC50.
1. GYTYFTTVTVEPYETQPGEEA [FB-21 (P12Y13)]
2. GYTYFTTVTVEWYETQPGEEA [FB-21 (W12Y13)]
3. GYTYFTTVTVEIFETQPGEEA [FB-21 (I12F13)]
4. GYTYFTTVTVEQRETQPGEEA [FB-21 (Q12R13)]

Result string:
39
4.1
9.9
39.9
